Hey, just so you know, these numbers are from patent US20240391984A1.

# MEASURED ON: polyclonal IgG (Gammanorm, Octapharma, Sweden)
# EXPERIMENTAL PROTOCOL: SPR (Biacore 8K+), variant amine-coupled to CM5, Gammanorm as analyte, steady state fit
REPORTED PROPERTY: pKd
pKd (log units): -log10 of the concentration in mol/L.

# BINDER, REPORTED PROPERTY, MEAS VALUE
rows = [
    ("pAM136 (B3 domain of Protein L; pos 10 Y, pos 45 N, pos 60 Y) (designed binder) PKEEVTIKAYLIYADGKTQTAEFKGTFEEATAEAYRYADLLAKENGKYTVDVADKGYTLYIKFAGKEKTPEE", "pKd", 7.11),
    ("pAM124 (B3 domain of Protein L; pos 10 Q, pos 45 A, pos 60 N) (designed binder) PKEEVTIKAQLIYADGKTQTAEFKGTFEEATAEAYRYADLLAKEAGKYTVDVADKGYTLNIKFAGKEKTPEE", "pKd", 7.29),
]

Read the next record carefully.
The binder listed as pAM171 (B5 domain of Protein L; pos 10 Y, pos 45 H, pos 60 Y) (designed binder) KEQVTIKEYIYFEDGTVQTATFKGTFAEATAEAYRYADLLSKEHGKYTADLEDGGYTIYIRFAGKEEPEE has a reported pKd of 7.40
